Quick list: Activity per entry.
Test system: Mus musculus
Assay: Neuroleptic activity in mouse assessed as suppression of conditioned avoidance behavior by measuring mean correct responses level at 10 mg/kg, ip administered 4 hrs prior to electric shock challenge
Format: functional
Details: route intraperitoneal
property: Activity

1) CN(C)CCCN1c2ccccc2Sc2ccc(Cl)cc21 : 37%
2) O=C(O)/C=C/C(=O)O.O=C(c1ccc(F)cc1)C1CCN(CCCN2c3ccccc3Sc3ccc(C(F)(F)F)cc32)CC1 [DUOPERONE FUMARATE] : 80%
3) O=C(O)/C=C/C(=O)O.O=C(c1ccc(F)cc1)C1CCN(CCCN2c3ccccc3Sc3ccc(Cl)cc32)CC1 : 32%
4) CC(=O)c1ccc2c(c1)N(CCCN1CCC(C(=O)c3ccc(F)cc3)CC1)c1ccccc1S2.O.O=C(O)/C=C/C(=O)O : 43%
5) O=C(c1ccc(Cl)c(Cl)c1)C1CCN(CCCN2c3ccccc3Sc3ccc(Cl)cc32)CC1 : 92%
6) O.O=C(O)/C=C/C(=O)O.O=C(c1ccc(F)cc1)C1CCN(CCCN2c3ccccc3Sc3ccccc32)CC1 : 75%

###

Tested on: Mus musculus
Test: Neuroleptic activity in ip dosed ICR-DUB mouse assessed as survival administered 3 days prior to d-amphetamine challenge measured after 24 hrs
Format: functional
Activity calls are given as the source filed them. The rule behind the calls is not given here.
property: ED50

1. O=C(O)/C=C/C(=O)O.O=C(c1ccc(F)cc1)C1CCN(CCCN2c3ccccc3Sc3ccc(C(F)(F)F)cc32)CC1 [DUOPERONE FUMARATE] : 15.2 mg/kg
2. O=C(CCCN1CCC(O)(c2ccc(Cl)cc2)CC1)c1ccc(F)cc1 : Active
3. CC(=O)c1ccc2c(c1)N(CCCN1CCC(C(=O)c3ccc(F)cc3)CC1)c1ccccc1S2.O.O=C(O)/C=C/C(=O)O : 17.5 mg/kg
4. O.O=C(O)/C=C/C(=O)O.O=C(c1ccc(F)cc1)C1CCN(CCCN2c3ccccc3Sc3ccccc32)CC1 : > 50 mg/kg
5. OC1(c2ccc(Cl)c(C(F)(F)F)c2)CCN(CCCC(c2ccc(F)cc2)c2ccc(F)cc2)CC1 : 17 mg/kg
6. CN(C)CCCN1c2ccccc2Sc2ccc(Cl)cc21 : Active
7. O=C(O)/C=C/C(=O)O.O=C(c1ccc(F)cc1)C1CCN(CCCN2c3ccccc3Sc3ccc(Cl)cc32)CC1 : 8.8 mg/kg

###

Tested on: Mus musculus
Experiment: Neuroleptic activity in mouse assessed as suppression of conditioned avoidance behavior by measuring mean correct responses level at 10 mg/kg, ip administered 1 hr prior to electric shock challenge
Format: functional
Details: route intraperitoneal
Listing of recorded Activity by entry.
property: Activity (%)

1) CN(C)CCCN1c2ccccc2Sc2ccc(Cl)cc21 : 42
2) O.O=C(O)/C=C/C(=O)O.O=C(c1ccc(F)cc1)C1CCN(CCCN2c3ccccc3Sc3ccccc32)CC1 : 63
3) O=C(O)/C=C/C(=O)O.O=C(c1ccc(F)cc1)C1CCN(CCCN2c3ccccc3Sc3ccc(C(F)(F)F)cc32)CC1 [DUOPERONE FUMARATE] : 98
4) O=C(c1ccc(Cl)c(Cl)c1)C1CCN(CCCN2c3ccccc3Sc3ccc(Cl)cc32)CC1 : 97
5) CC(=O)c1ccc2c(c1)N(CCCN1CCC(C(=O)c3ccc(F)cc3)CC1)c1ccccc1S2.O.O=C(O)/C=C/C(=O)O : 73
6) O=C(O)/C=C/C(=O)O.O=C(c1ccc(F)cc1)C1CCN(CCCN2c3ccccc3Sc3ccc(Cl)cc32)CC1 : 80

Cited source: ChEMBL document CHEMBL3244169
